I'd appreciate it if you could supply IC50 values for the items below.
target_of_assay: Alpha-glucosidase (Saccharomyces cerevisiae S288c, UniProt P53341+P38158+P07265)
test_description: Inhibition of Saccharomyces cerevisiae alpha-glucosidase assessed as release of p-nitrophenol using pNPG as substrate preincubated for 15 mins followed by substrate addition and measured after 15 mins by plate reader analysis
Assay type: protein assay
Answers are plain numbers, in µg/mL.

cpd_smiles	reported_measurement
COc1cc(O)c2c(=O)c3cc(O)ccc3oc2c1OC	13.2

Below are 2 compounds. Give each one its IC50.
1. O=c1c2cc(O)ccc2oc2cccc(O)c12
2. O=c1c2cc(O)ccc2oc2cc(O)cc(O)c12

1. 35.8
2. 3.2

---

I'd appreciate it if you could supply IC50 values for the items below.
target_of_assay: Alpha-glucosidase (Saccharomyces cerevisiae S288c, UniProt P53341+P38158+P07265)
test_description: Inhibition of Saccharomyces cerevisiae alpha-glucosidase using pNPG as preincubated for 15 mins followed by substrate addition and measured after 30 mins by spectroscopic analysis
Answers are plain numbers, in µM.

Field: example entries. Status: answers known.
compound	reported_measurement
COc1cc(O)c2c(=O)c3c(O)c(O[C@@H]4OC[C@@H](O)[C@H](O)[C@H]4O[C@@H]4O[C@@H](C)[C@H](O)[C@@H](O)[C@H]4O)ccc3oc2c1	765
COc1cc(O)c2c(=O)c3c(O[C@@H]4O[C@H](CO)[C@@H](O)[C@H](O)[C@H]4O)ccc(O)c3oc2c1 [SWERTIANOLIN]	389

# ---- query compound ----
Sample COc1ccc(O)c2c(=O)c3c(O[C@H]4O[C@@H](CO)[C@H](O)[C@H](O)[C@@H]4O)cc(O)c(OC)c3oc12 — what was its IC50?
578

---

I'd appreciate it if you could supply IC50 values for the items below.
target_of_assay: Alpha-glucosidase (Saccharomyces cerevisiae S288c, UniProt P53341+P38158+P07265)
test_description: Inhibition of Saccharomyces cerevisiae alpha-glucosidase assessed as release of p-nitrophenol using pNPG as substrate preincubated for 5 mins followed by substrate addition and measured after 30 mins by absorbance assay
Format: protein assay

Below are 2 compounds. Give each one its IC50.
1. CC(C)=CCc1c(O)cc2oc3ccc(O)cc3c(=O)c2c1O
2. CC(C)=CCc1cc2c(=O)c3c(O)c4c(cc3oc2c(O)c1O)OC(C)(C)C=C4

1. > 100 µM
2. 29.36 µM

Below are 3 compounds. Give each one its IC50.
1. CC1(C)C=Cc2c(cc3oc4c(O)c5c(cc4c(=O)c3c2O)C=CC(C)(C)O5)O1
2. CC1(C)C=Cc2c(cc3oc4ccc(O)cc4c(=O)c3c2O)O1
3. C=CC(C)(C)c1c(O)ccc2c(=O)c3c(O)c(CC=C(C)C)c(OC)c(O)c3oc12

1: > 100 µM; 2: > 100 µM; 3: 8.9 µM

---

target_of_assay: Alpha-glucosidase (Saccharomyces cerevisiae S288c, UniProt P53341+P38158+P07265)
test_description: Inhibition of Saccharomyces cerevisiae alpha-glucosidase using pNPG as preincubated for 15 mins followed by substrate addition and measured after 30 mins by spectroscopic analysis
measurement_kind: IC50 (µM)
One number for each entry, in µM.

compound	measurement_kind	reported_measurement
COc1cc(O)c2c(=O)c3c(O[C@H]4O[C@@H](CO[C@H]5OC[C@@H](O)[C@H](O)[C@H]5O)[C@H](O)[C@H](O)[C@@H]4O)ccc(OC)c3oc2c1OC	IC50	136
COc1c(OC)c(O[C@H]2O[C@@H](CO[C@H]3OC[C@@H](O)[C@H](O)[C@H]3O)[C@H](O)[C@H](O)[C@@H]2O)c2c(=O)c3c(O)ccc(OC)c3oc2c1OC	IC50	442
COc1ccc(O)c2c(=O)c3c(O[C@H]4O[C@@H](CO)[C@H](O[C@H]5O[C@@H](CO)[C@H](O)[C@H](O)[C@@H]5O)[C@H](O)[C@@H]4O)cc(O)c(OC)c3oc12	IC50	258
COc1ccc(O)c2c(=O)c3c(O[C@H]4O[C@@H](CO[C@@H]5O[C@@H](CO)[C@H](O)[C@H](O)[C@@H]5O)[C@H](O)[C@H](O)[C@@H]4O)cc(O)c(OC)c3oc12	IC50	478

# ---- query compound ----
Sample O=c1c2c(O)cc(O)cc2oc2c(O)ccc(O[C@@H]3O[C@H](CO)[C@@H](O)[C@H](O)[C@H]3O)c12 [NORSWERTIANOLIN] — what was its IC50?
679
